Test system: colistin resistant MCR (+) E. Coli strains
EXPERIMENTAL PROTOCOL: MIC, broth microdilution, compound alone
Type: cell-based
ASSAY SETUP: strain 7023436560, MCR (+); compound alone
OUTCOME MEASURE: MIC

A selection of reference data follows.
{"columns": ["COMPOUND", "ASSAYED TARGET", "OUTCOME MEASURE", "READING"],
 "data": [
  ["O=C(C=Cc1ccc(OCCCCN2CCNCCNCCNCC2)cc1)c1ccc(OCCCCN2CCNCCNCCNCC2)cc1O.[Cl][Zn][Cl].[Cl][Zn][Cl] [LC304]", "colistin resistant MCR (+) E. Coli strains", "MIC", ">50 µg/mL"],
  ["CCN(CC)CCCCOc1ccc(/C=C/C(=O)c2ccc(OCCCCN(CC)CC)cc2O)cc1 [LC107]", "colistin resistant MCR (+) E. Coli strains", "MIC", ">100 µg/mL"],
  ["O=C(O)CN(CCN(CC(=O)O)CC(=O)O)CC(=O)O [EDTA, Ethylenediaminetetraacetic acid, reference compound]", "colistin resistant MCR (+) E. Coli strains", "MIC", ">250 µg/mL"],
  ["Cc1cc(OCCCCC[N+](C)(C)C)cc(OCCCCC[N+](C)(C)C)c1 [LC310]", "colistin resistant MCR (+) E. Coli strains", "MIC", ">50 µg/mL"],
  ["COC(=O)C(CCCNC(=N)N)NC(=O)COc1ccc(C2COc3c(ccc4c3C=CC(C)(C)O4)C2)c(OCC(=O)NC(CCCNC(=N)N)C(=O)OC)c1 (stereo not shown) [LC106]", "colistin resistant MCR (+) E. Coli strains", "MIC", ">25 µg/mL"]
]}

Could you report MIC for every entry in the following list?
1. CC1(C)C=Cc2c(ccc3c2OCC(c2ccc(OCC(=O)NC(CCCNC(=N)N)C(N)=O)cc2OCC(=O)NC(CCCNC(=N)N)C(N)=O)C3)O1 (stereo not shown) [LC127]
2. CC(C)=CCc1c(OCC(=O)NC(CCCNC(=N)N)C(N)=O)ccc(C(=O)/C=C/c2ccc(OCC(=O)NC(CCCNC(=N)N)C(N)=O)cc2)c1O (stereo not shown) [LC131]

1: >50 µg/mL; 2: >50 µg/mL

###

Exercise: for every item that follows, state its recorded MIC.
System: colistin resistant MCR (+) E. Coli strains
EXPERIMENTAL PROTOCOL: MIC, broth microdilution, compound alone
Type: cell-based
ASSAY SETUP: strain 7103531927, MCR (+); compound alone

{"columns": ["COMPOUND SMILES", "READING"],
 "data": [
  ["CCN(CC)CCOc1ccc(/C=C/C(=O)c2ccc(OCCN(CC)CC)c(CC=C(C)C)c2O)cc1", ">50 µg/mL"]
]}

// each compound listed below needs its MIC
1. CCN(CC)CCCOc1ccc(/C=C/C(=O)c2ccc(OCCCN(CC)CC)c(CC=C(C)C)c2O)cc1
2. CC(C)=CCc1c(OCCCN2CCNCCNCCNCC2)ccc(C(=O)/C=C/c2ccc(OCCCN3CCNCCNCCNCC3)cc2)c1O

1: >50 µg/mL; 2: >50 µg/mL

###

System: colistin resistant MCR (−) E. Coli strains
EXPERIMENTAL PROTOCOL: MIC, broth microdilution, compound alone
Format: cell-based
ASSAY SETUP: strain 6083672926, MCR (−)
OUTCOME MEASURE: MIC

// below: answered molecules
{"columns": ["MOLECULE", "READING"],
 "data": [
  ["CC1(C)C=Cc2c(ccc3c2OCC(c2ccc(OCCCCC[N+](C)(C)C)cc2OCCCCC[N+](C)(C)C)C3)O1 (stereo not shown)", ">50 µg/mL"],
  ["CC(C)=CCc1c(OCCCN2CCNCCNCCNCC2)ccc(C(=O)/C=C/c2ccc(OCCCN3CCNCCNCCNCC3)cc2)c1O", ">50 µg/mL"],
  ["O=C(O)CN(CCN(CC(=O)O)CC(=O)O)CC(=O)O [EDTA, Ethylenediaminetetraacetic acid, reference compound]", ">250 µg/mL"]
]}

Look at each molecule and report its MIC.
1. CC1(C)C=Cc2c(ccc3c2OCC(c2ccc(OCC(=O)NC(CCCNC(=N)N)C(N)=O)cc2OCC(=O)NC(CCCNC(=N)N)C(N)=O)C3)O1 (stereo not shown)
2. CC[N+](CC)(CC)CCCCOc1ccc(C2COc3c(ccc4c3C=CC(C)(C)O4)C2)c(OCCCC[N+](CC)(CC)CC)c1 (stereo not shown)
3. CC(C)=CCc1c(OCC(=O)NC(CCCNC(=N)N)C(N)=O)ccc(C(=O)/C=C/c2ccc(OCC(=O)NC(CCCNC(=N)N)C(N)=O)cc2)c1O (stereo not shown)
4. CCN(CC)CCCOc1ccc(/C=C/C(=O)c2ccc(OCCCN(CC)CC)c(CC=C(C)C)c2O)cc1
5. Cc1cc(OCCCCC[N+](C)(C)C)cc(OCCCCC[N+](C)(C)C)c1

1: >50 µg/mL; 2: >50 µg/mL; 3: >50 µg/mL; 4: >50 µg/mL; 5: >50 µg/mL

# batch: return MIC for each of the 2 molecules below
1. O=C(C=Cc1ccc(OCCCCN2CCNCCNCCNCC2)cc1)c1ccc(OCCCCN2CCNCCNCCNCC2)cc1O.[Cl][Zn][Cl].[Cl][Zn][Cl]
2. COC(=O)C(CCCNC(=N)N)NC(=O)COc1ccc(C2COc3c(ccc4c3C=CC(C)(C)O4)C2)c(OCC(=O)NC(CCCNC(=N)N)C(=O)OC)c1 (stereo not shown)

1. >50 µg/mL
2. >25 µg/mL

###

Test system: colistin resistant MCR (+) E. Coli strains
EXPERIMENTAL PROTOCOL: MIC, broth microdilution, compound alone
Assay type: cell-based
ASSAY SETUP: strain 6075066346, MCR (+); compound alone
OUTCOME MEASURE: MIC

Below are worked cases with known answers.
{"columns": ["COMPOUND", "READING"],
 "data": [
  ["Cc1cc(OCCCCC[N+](C)(C)C)cc(OCCCCC[N+](C)(C)C)c1", ">50 µg/mL"],
  ["O=C(C=Cc1ccc(OCCCCN2CCNCCNCCNCC2)cc1)c1ccc(OCCCCN2CCNCCNCCNCC2)cc1O.[Cl][Zn][Cl].[Cl][Zn][Cl]", ">50 µg/mL"],
  ["CC1(C)C=Cc2c(ccc3c2OCC(c2ccc(OCC(=O)NC(CCCNC(=N)N)C(N)=O)cc2OCC(=O)NC(CCCNC(=N)N)C(N)=O)C3)O1 (stereo not drawn)", ">50 µg/mL"]
]}

Give measured MIC for every item shown.
1. CC(C)=CCc1c(OCC(=O)NC(CCCNC(=N)N)C(N)=O)ccc(C(=O)/C=C/c2ccc(OCC(=O)NC(CCCNC(=N)N)C(N)=O)cc2)c1O (stereo not drawn)
2. COC(=O)C(CCCNC(=N)N)NC(=O)COc1ccc(C2COc3c(ccc4c3C=CC(C)(C)O4)C2)c(OCC(=O)NC(CCCNC(=N)N)C(=O)OC)c1 (stereo not drawn)
3. CCN(CC)CCOc1ccc(/C=C/C(=O)c2ccc(OCCN(CC)CC)c(CC=C(C)C)c2O)cc1
4. CC(C)=CCc1c(OCCCN2CCNCCNCCNCC2)ccc(C(=O)/C=C/c2ccc(OCCCN3CCNCCNCCNCC3)cc2)c1O
5. CCN(CC)CCCCOc1ccc(/C=C/C(=O)c2ccc(OCCCCN(CC)CC)cc2O)cc1
6. CCN(CC)CCCOc1ccc(/C=C/C(=O)c2ccc(OCCCN(CC)CC)c(CC=C(C)C)c2O)cc1

1. >50 µg/mL
2. >25 µg/mL
3. >50 µg/mL
4. >50 µg/mL
5. >100 µg/mL
6. >50 µg/mL
